Molecular target: HBV polymerase (Hepatitis B virus genotype D subtype ayw)
Construct: made in house; host or cells: E. coli
Sequence (P03156 whole entry): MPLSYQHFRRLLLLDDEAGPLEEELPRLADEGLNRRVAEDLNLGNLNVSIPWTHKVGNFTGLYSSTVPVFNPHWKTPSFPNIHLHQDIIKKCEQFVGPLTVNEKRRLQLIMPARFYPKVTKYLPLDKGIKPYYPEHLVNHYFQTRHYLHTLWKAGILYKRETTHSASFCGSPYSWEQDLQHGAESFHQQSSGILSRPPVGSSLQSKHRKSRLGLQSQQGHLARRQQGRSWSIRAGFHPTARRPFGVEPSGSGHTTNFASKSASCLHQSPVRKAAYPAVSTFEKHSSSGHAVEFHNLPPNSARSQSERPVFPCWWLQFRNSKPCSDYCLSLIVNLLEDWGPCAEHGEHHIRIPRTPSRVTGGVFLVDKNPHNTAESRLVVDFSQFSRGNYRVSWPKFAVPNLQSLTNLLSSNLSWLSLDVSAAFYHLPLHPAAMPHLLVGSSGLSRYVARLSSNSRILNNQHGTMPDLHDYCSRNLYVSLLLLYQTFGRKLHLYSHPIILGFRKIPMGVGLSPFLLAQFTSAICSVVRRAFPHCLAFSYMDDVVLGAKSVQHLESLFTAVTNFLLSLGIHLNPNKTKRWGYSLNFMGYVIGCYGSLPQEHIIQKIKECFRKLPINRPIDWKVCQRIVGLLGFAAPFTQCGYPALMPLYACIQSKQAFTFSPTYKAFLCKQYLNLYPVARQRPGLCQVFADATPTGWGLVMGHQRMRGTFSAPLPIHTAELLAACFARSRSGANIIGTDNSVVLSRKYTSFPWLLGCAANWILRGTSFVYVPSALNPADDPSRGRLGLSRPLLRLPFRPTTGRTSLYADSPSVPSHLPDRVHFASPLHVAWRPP
Experiment: Inhibitory activities against HBV polymerase (reverse transcriptase activity) in vitro
Assay type: biochemical
Details: 1 μg/ml; read-out: Inhibitory activity of HBV-RT (%)
Reported property: inhibition at 1 µg/mL
Kindly format the answer as number then unit.

Past entries and their recorded results:
- Molecule: "Nc1cccnc1N1CCN(C(=O)c2ccc(C(=O)NC3CCOC3=O)cn2)CC1 (stereo not drawn)"
  Assay target: "HBV polymerase (Hepatitis B virus genotype D subtype ayw)"
  Reported measurement: "82%"
- Molecule: "CC(C)Nc1cccnc1N1CCN(C(=O)c2ccc(C(=O)NCc3ccco3)cn2)CC1"
  Assay target: "HBV polymerase (Hepatitis B virus genotype D subtype ayw)"
  Reported measurement: "78%"

Moving on to another molecule below.
### Prompt // query inhibition at 1 µg/mL value for entry "CC(C)Nc1cccnc1N1CCN(C(=O)c2ccc(C(=O)NCc3ccncc3)cn2)CC1"
### Response 79%

Just for reference, patent US6306860A is where these values come from.
